Catalogue of half-life at 1 μM readings, one per entry.
# test: Metabolic stability in mouse liver microsomes (MLM)
# Type: in vitro ADME, CD-1 mice
# condition_label: male, CD-1, mouse, pooled mouse liver microsomes, pH 7.4, 1 μM compound, 0.50 mg protein/mL, NADPH
Give your result in h as a bare value.

Below are worked cases with known answers.
{"columns": ["compound", "units_of_measure", "half-life at 1 μM"],
 "data": [
  ["CNC1(c2ccccc2Cl)CCCCC1=O (racemic) [racemic ketamine, ketamine]", "h", 0.257],
  ["N[C@]1(c2cccc(F)c2)CCCCC1=O", "h", 2.05]
]}

**Q:** Using known records, supply half-life at 1 μM for N[C@@]1(c2cccc(F)c2)CCCCC1=O
**A:** 2

**Q:** Using known records, supply half-life at 1 μM for CNC1(c2ccc(F)cc2)CCCCC1=O (racemic)
**A:** 1.68

**Q:** Using known records, supply half-life at 1 μM for CN[C@]1(c2ccc(F)cc2)CCCCC1=O
**A:** 1.79

**Q:** Using known records, supply half-life at 1 μM for CN[C@@]1(c2ccc(F)cc2)CCCCC1=O
**A:** 2.12
